Values compiled from patent US11028093B2.

Target: Human Tyk2 kinase domain (Homo sapiens (Human), UniProt P29597)
Sequence (P29597 886-1187): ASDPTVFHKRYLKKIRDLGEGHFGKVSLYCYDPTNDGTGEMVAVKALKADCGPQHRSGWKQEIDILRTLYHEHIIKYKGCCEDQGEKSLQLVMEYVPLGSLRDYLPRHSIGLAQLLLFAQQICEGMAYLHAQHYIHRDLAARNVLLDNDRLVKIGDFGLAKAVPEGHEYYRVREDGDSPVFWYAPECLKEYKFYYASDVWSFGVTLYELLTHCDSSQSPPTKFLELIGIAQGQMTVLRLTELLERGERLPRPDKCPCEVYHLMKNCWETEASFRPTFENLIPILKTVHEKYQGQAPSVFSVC
Test: Tyk2 Inhibition Assay (Omnia kinase fluorescence peptide substrate assay, 1 mM ATP)
Format: biochemical
Conditions: read-out: TYK2 Enzyme IC50 1 mM ATP; 1 mM ATP; averaged IC50 ranges
Observable: IC50

1) CCC1(n2cc(-c3nc(-c4cnn(C)c4)cn4nccc34)cn2)CN(S(=O)(=O)C(F)(F)F)C1 | < 10 nM
